Target protein (sequence): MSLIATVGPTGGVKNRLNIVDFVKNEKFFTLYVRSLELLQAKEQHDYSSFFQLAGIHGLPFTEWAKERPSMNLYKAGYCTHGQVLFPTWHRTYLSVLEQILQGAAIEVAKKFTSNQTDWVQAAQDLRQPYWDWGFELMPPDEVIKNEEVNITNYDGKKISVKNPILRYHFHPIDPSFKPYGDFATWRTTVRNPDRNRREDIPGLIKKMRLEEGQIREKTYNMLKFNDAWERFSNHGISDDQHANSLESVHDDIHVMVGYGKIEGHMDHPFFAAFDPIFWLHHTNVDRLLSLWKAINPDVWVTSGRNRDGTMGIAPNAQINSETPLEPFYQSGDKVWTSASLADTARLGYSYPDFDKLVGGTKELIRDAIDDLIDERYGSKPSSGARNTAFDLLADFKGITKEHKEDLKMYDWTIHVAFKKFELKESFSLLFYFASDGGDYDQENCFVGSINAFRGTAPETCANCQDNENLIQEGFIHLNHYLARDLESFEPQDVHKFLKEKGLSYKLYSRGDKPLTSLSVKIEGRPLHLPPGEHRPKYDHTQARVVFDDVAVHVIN
readout kind: IC50 (µM)
Use µM as the unit, but write only the number.

>  <compound>
CC1=CC(=O)CC(C)(C)[C@H]1/C=C/[C@@H](C)O[C@@H]1O[C@H](CO)[C@@H](O)[C@H](O)[C@H]1O[C@@H]1O[C@@H](C)[C@H](O)[C@@H](O)[C@H]1O [GUSANLUNGIONOSIDE B]

>  <IC50 (µM)>
160

$$$$
>  <compound>
CC1=CC(=O)CC(C)(C)[C@H]1CC[C@@H](C)O[C@@H]1O[C@H](CO)[C@@H](O)[C@H](O)[C@H]1O[C@@H]1O[C@@H](C)[C@H](O)[C@@H](O)[C@H]1O [GUSANLUNGIONOSIDE D]

>  <IC50 (µM)>
190

$$$$

Now look at this one.
Return IC50 for the following compound: CC1=CC(=O)CC(C)(C)[C@@H]1CC[C@@H](C)O[C@@H]1O[C@H](CO)[C@@H](O)[C@H](O)[C@H]1O[C@@H]1O[C@@H](C)[C@H](O)[C@@H](O)[C@H]1O [GUSANLUNGIONOSIDE C]
200

----------
Listed here: compounds with reported IC50 for Tyrosinase (Agaricus bisporus).

Completed entries (count: 3):
>  <compound>
COc1cc2c(cc1O)C(=O)N(C)CC2

>  <IC50>
> 1 mM

$$$$
>  <compound>
CC1=CC(=O)CC(C)(C)[C@@H]1/C=C/[C@@H](C)O[C@@H]1O[C@H](CO)[C@@H](O)[C@H](O)[C@H]1O[C@@H]1O[C@@H](C)[C@H](O)[C@@H](O)[C@H]1O [GUSANLUNGIONOSIDE A]

>  <IC50>
0.15 mM

$$$$
>  <compound>
O=C(/C=C/c1ccc(O)cc1)NCCc1ccc(O)cc1

>  <IC50>
> 1 mM

$$$$

Switching to the query record.
Find the measured IC50 of COc1cc([C@H]2c3c(cc(OC)c(O)c3OC)C[C@H](CO)[C@@H]2CO[C@@H]2O[C@H](CO)[C@@H](O)[C@H](O)[C@H]2O)cc(OC)c1O and report it.
> 1 mM

All values here come from ChEMBL document CHEMBL1811762.
